procedure_details: self-splicing fitness, log relative to wild type (ln ratio); higher = more splicing; Tetrahymena group I intron in knt gene, E. coli kanamycin selection, DiMSum; sequences stand for … in CUCUCU…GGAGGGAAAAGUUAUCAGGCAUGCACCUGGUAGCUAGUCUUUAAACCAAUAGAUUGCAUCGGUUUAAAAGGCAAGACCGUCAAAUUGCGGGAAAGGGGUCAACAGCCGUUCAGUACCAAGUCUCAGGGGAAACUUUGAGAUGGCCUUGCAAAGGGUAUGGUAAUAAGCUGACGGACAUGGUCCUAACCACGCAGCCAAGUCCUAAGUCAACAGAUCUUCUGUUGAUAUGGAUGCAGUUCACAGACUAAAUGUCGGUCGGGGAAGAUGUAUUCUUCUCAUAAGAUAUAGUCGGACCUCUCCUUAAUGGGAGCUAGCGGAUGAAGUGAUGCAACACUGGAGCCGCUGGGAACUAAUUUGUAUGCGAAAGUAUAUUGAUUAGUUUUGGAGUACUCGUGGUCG;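 note: selection with 25 µg/mL kanamycin versus none on LB agar overnight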
measurement_conditions: 37 °C
# binarize self-splicing fitness (ln): threshold -2 inclusive, high side Yes, low side No

Exam item: Confirm if self-splicing fitness (ln) reported for the sequence `AGGCAGCAAUAUUACGCACC` is -2 or above.
Marked response: Yes

Exam item: Confirm if self-splicing fitness (ln) reported for the sequence `UCCCAGCAAUAUUACGGAAC` is -2 or above.
Marked response: No

Exam item: Confirm if self-splicing fitness (ln) reported for the sequence `AGCCAGCAAUAUUACGAAAA` is -2 or above.
Marked response: Yes

Exam item: Confirm if self-splicing fitness (ln) reported for the sequence `GUGGAGCAAUAUUACGGGGC` is -2 or above.
Marked response: Yes

Exam item: Confirm if self-splicing fitness (ln) reported for the sequence `UCCAAGCAAUAUUACGUAUC` is -2 or above.
Marked response: Yes

Exam item: Confirm if self-splicing fitness (ln) reported for the sequence `GUGAAGCAAUAUUACGUAUU` is -2 or above.
Marked response: Yes

Exam item: Confirm if self-splicing fitness (ln) reported for the sequence `GGUCAGCAAUAUUACGUGGG` is -2 or above.
Marked response: No

Exam item: Confirm if self-splicing fitness (ln) reported for the sequence `CGCCAGCAAUAUUACGUCCA` is -2 or above.
Marked response: Yes
